Hey, just so you know, these numbers are from the supplement of paper PMC6757056.

Consider the following variants; for each one, report its normalized RNA/DNA level without ligand (log10).
B1: library; a variant is named by its letters at N, in order (parent)
chain: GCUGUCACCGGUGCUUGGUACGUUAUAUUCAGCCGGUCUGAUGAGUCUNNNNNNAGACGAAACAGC

variants of: B1; assay: normalized RNA/DNA level without ligand (relative to sTRSVctl = 100) (log10 (% of sTRSVctl)); HEK293T overexpressing SLC46A1; higher = less ribozyme self-cleavage, higher mRNA level; conditions: without (6R,S)-folinic acid; ligand present: no
Reply: number alone, nothing else.

Asked: What does the record list as normalized RNA/DNA level without ligand (log10) for AGCCAG ?
Given back: 1.99

Asked: Which normalized RNA/DNA level without ligand (log10) value is on record for UGUUGU ?
Given back: 1.9

Asked: // normalized RNA/DNA level without ligand (log10) lookup, key: UGAAAU
Given back: 1.81

Asked: // normalized RNA/DNA level without ligand (log10) lookup, key: CGUAGG
Given back: 1.83

Asked: Which normalized RNA/DNA level without ligand (log10) value belongs to GCGGUC ?
Given back: 2.06

Asked: State the recorded normalized RNA/DNA level without ligand (log10) for this entry: CGUAUG
Given back: 2.02

Asked: Report normalized RNA/DNA level without ligand (log10) for UCUAAU please.
Given back: 1.97

Asked: Entry CCAGUC : reported normalized RNA/DNA level without ligand (log10) = ?
Given back: 2.06

Asked: For the variant AGGGUU , what normalized RNA/DNA level without ligand (log10) is on record?
Given back: 2.02

Asked: Report normalized RNA/DNA level without ligand (log10) for AGGACU please.
Given back: 1.99

Asked: Could you tell me which normalized RNA/DNA level without ligand (log10) is on file for GUUUUA ?
Given back: 2

Asked: I would be grateful if you could share the reported normalized RNA/DNA level without ligand (log10) for AAGCCA .
Given back: 2.01

Asked: Fill in the blank: the reported normalized RNA/DNA level without ligand (log10) of UGGCCA is ____.
Given back: 2.04

Asked: normalized RNA/DNA level without ligand (log10) lookup needed for UAUCAC , thanks.
Given back: 1.98

Asked: What value of normalized RNA/DNA level without ligand (log10) has been recorded for this entry: ACCCUG
Given back: 2.01

Asked: Given the entry UAUUUC , report its measured normalized RNA/DNA level without ligand (log10).
Given back: 2.03

Asked: Would you kindly share the measured normalized RNA/DNA level without ligand (log10) for GAUCAU ?
Given back: 2.02

Asked: What does the record list as normalized RNA/DNA level without ligand (log10) for UUCGAA ?
Given back: 1.95

Asked: # input variant: AAAAUU ; wanted: its normalized RNA/DNA level without ligand (log10)
Given back: 2.02

Asked: Reported normalized RNA/DNA level without ligand (log10) for GAACGC : what is it?
Given back: 1.95

Asked: Given the variant AUGGUC , what is its reported normalized RNA/DNA level without ligand (log10)?
Given back: 2.06

Asked: Given UAUAGG , state its recorded normalized RNA/DNA level without ligand (log10).
Given back: 1.58

Asked: Quick one: normalized RNA/DNA level without ligand (log10) for GCACAC ?
Given back: 1.97

Asked: Entry CCUGGA has what normalized RNA/DNA level without ligand (log10)?
Given back: 2.05

Asked: Field request: normalized RNA/DNA level without ligand (log10) | item: GGGCGG
Given back: 2.07

Asked: Reported normalized RNA/DNA level without ligand (log10) for CUCUAC : what is it?
Given back: 2.04

Asked: normalized RNA/DNA level without ligand (log10) for CGGGGG ?
Given back: 1.91

Asked: // normalized RNA/DNA level without ligand (log10) lookup, key: CUAGGU
Given back: 2.02

Asked: Fill in the blank: the reported normalized RNA/DNA level without ligand (log10) of AAUACU is ____.
Given back: 1.99

Asked: Give the measured normalized RNA/DNA level without ligand (log10) of CUCGGG .
Given back: 2.03
